- ASSAY_SYSTEM: GABA-A receptor; anion channel
- TEST_DESCRIPTION: Inhibition of [3H]flunitrazepam binding to benzodiazepine receptor in bovine brain membrane
Group membership follows IC50 per the scheme one: < 0.7 µM; two: ≥ 0.7 µM and < 3 µM; three: ≥ 3 µM

>  <COMPOUND>
Cc1nn(-c2ccc([N+](=O)[O-])cc2)c2c1c(=O)oc1ccccc12

>  <ASSIGNED_CLASS>
two

$$$$
>  <COMPOUND>
Cc1nn(-c2cccc([N+](=O)[O-])c2)c2c1c(=O)oc1ccccc12

>  <ASSIGNED_CLASS>
one

$$$$
>  <COMPOUND>
Cc1nn(-c2cccc(Cl)c2)c2c1c(=O)oc1ccccc12

>  <ASSIGNED_CLASS>
one

$$$$
>  <COMPOUND>
Cc1nn(-c2cccc(Br)c2)c2c1c(=O)oc1ccccc12

>  <ASSIGNED_CLASS>
one

$$$$
>  <COMPOUND>
COc1cccc(-n2nc(C)c3c(=O)oc4ccccc4c32)c1

>  <ASSIGNED_CLASS>
two

$$$$
>  <COMPOUND>
Cc1nn(-c2ccccc2N)c2c1c(=O)oc1ccccc12

>  <ASSIGNED_CLASS>
one

$$$$
>  <COMPOUND>
O=c1oc2ccccc2c2c1c(-c1ccccc1)nn2-c1ccccc1

>  <ASSIGNED_CLASS>
three

$$$$
>  <COMPOUND>
Cc1ccc(-n2nc(C)c3c(=O)oc4ccccc4c32)cc1

>  <ASSIGNED_CLASS>
two

$$$$
>  <COMPOUND>
Cc1nn(-c2cccc(N)c2)c2c1c(=O)oc1ccccc12

>  <ASSIGNED_CLASS>
three

$$$$
>  <COMPOUND>
Cc1nn(-c2ccc(Cl)cc2)c2c1c(=O)oc1ccccc12

>  <ASSIGNED_CLASS>
two

$$$$
>  <COMPOUND>
Cc1nn(-c2ccc(N)cc2)c2c1c(=O)oc1ccccc12

>  <ASSIGNED_CLASS>
two

$$$$
>  <COMPOUND>
COc1ccccc1-n1nc(C)c2c(=O)oc3ccccc3c21

>  <ASSIGNED_CLASS>
three

$$$$
>  <COMPOUND>
Cc1cc(C)cc(-n2nc(C)c3c(=O)oc4ccccc4c32)c1

>  <ASSIGNED_CLASS>
one

$$$$
>  <COMPOUND>
CNC1=Nc2ccc(Cl)cc2C(c2ccccc2)=[N+]([O-])C1 [CHLORDIAZEPOXIDE]

>  <ASSIGNED_CLASS>
two

$$$$
>  <COMPOUND>
Cc1nn(-c2ccccc2[N+](=O)[O-])c2c1c(=O)oc1ccccc12

>  <ASSIGNED_CLASS>
three

$$$$
>  <COMPOUND>
Cc1nn(-c2ccccc2Cl)c2c1c(=O)oc1ccccc12

>  <ASSIGNED_CLASS>
three

$$$$
>  <COMPOUND>
COc1cccc(-n2nc3c(c2C)c(=O)oc2ccccc23)c1

>  <ASSIGNED_CLASS>
three

$$$$
>  <COMPOUND>
Cc1c2c(=O)oc3ccccc3c2nn1-c1cccc(Br)c1

>  <ASSIGNED_CLASS>
three

$$$$
>  <COMPOUND>
CN1C(=O)CN=C(c2ccccc2)c2cc(Cl)ccc21 [DIAZEPAM]

>  <ASSIGNED_CLASS>
one

$$$$
>  <COMPOUND>
Cc1ccccc1-n1nc(C)c2c(=O)oc3ccccc3c21

>  <ASSIGNED_CLASS>
three

$$$$
>  <COMPOUND>
Cc1nn(-c2ccccc2)c2c1c(=O)oc1ccccc12

>  <ASSIGNED_CLASS>
one

$$$$
>  <COMPOUND>
Cc1c2c(=O)oc3ccccc3c2nn1-c1ccccc1

>  <ASSIGNED_CLASS>
three

$$$$
>  <COMPOUND>
Cc1cccc(-n2nc(C)c3c(=O)oc4ccccc4c32)c1

>  <ASSIGNED_CLASS>
one

$$$$
